Test system: MILI (PIWIL2) piRISC loaded with L1MC piRNA (26 nt);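 also: 1 nM active piRISC with 0.1 nM target library at 33 °C single turnover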
Test: pre-steady-state target cleavage rate (min^-1); guide: L1MC piRNA 5'p-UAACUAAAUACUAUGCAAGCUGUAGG; higher = faster piRNA-guided slicing of the target
Settings: auxiliary factor: 500 nM mouse GTSF1
Below, each entry is listed alongside its reported pre-steady-state target cleavage rate.
Form rule: numeric answer, no unit written next to it.

Below: 5 sequences and their reported pre-steady-state target cleavage rate.
1) UCCUGGAUCAGCUUGCAAACUAUUUAGUUA    0.0267
2) UCCUGGAUGUCGUUGUAUAGUAUUUAGUUA    0.151
3) UCCUGCCACAGCUUGCAUAGUAUUUAGUUA    0.331
4) UCCUGGAUCAGCUUGCUUAGUAUUUUCAAA    0.0126
5) UCCUCCUACAGCUUGCAUAGUAUUUACUAA    0.114

Incoming: I would be grateful if you could share the reported pre-steady-state target cleavage rate for UCCUGGAUCAGCUUGCAUAGUAUUUUCAUA .
Outgoing: 0.0451

Incoming: What value of pre-steady-state target cleavage rate has been reported for the following sequence? UCCUGCUACUCCUUGCAUAGUAUUUAGUAA
Outgoing: 0.188

Incoming: Query (sequence): UCCUGGUACAGCUUGCAUAGUAUUAAGAAA ; field requested: pre-steady-state target cleavage rate
Outgoing: 0.0213

Incoming: Would you kindly share the measured pre-steady-state target cleavage rate for UCCUGGAUGAGCUUGCAUAGUAUUUAGUGA ?
Outgoing: 0.193

Incoming: Which pre-steady-state target cleavage rate is reported for this sequence? UCCUGGAUGUGCUUGCAUAGUAAAUAGUAA
Outgoing: 0.0121

---

Tested on: MILI (PIWIL2) piRISC loaded with piRNA #1 (26 nt);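 also: 1 nM active piRISC with 0.1 nM target library at 33 °C single turnover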
Test: pre-steady-state target cleavage rate (min^-1); guide: piRNA #1 5'p-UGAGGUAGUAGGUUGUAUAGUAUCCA; higher = faster piRNA-guided slicing of the target
Details: auxiliary factor: 500 nM mouse GTSF1
pre-steady-state target cleavage rate by entry:
// response body must contain only the number

Some entries whose results are on file:
1. GGAGUGGAUACUAUACAACCUCCUACCUCA    0.0339
2. GGAGACGAUACUAUACAACCUACUACCCUCA    0.176
3. GGAGAGGAUACUAUUCAACCUUCUACCUCA    0.00949
4. GGAGACCAUACUUAUCAACCUACUACCUCA    0.102
5. GGAGACCUAACUAUACAACCUACUACCUUCA    0.14
6. GGAGACCUAUGUAUGCAACCUACUACCUCA    0.0637
7. GGAGUGGAUACUAUGACAACCUACUACCUCA    0.188
8. GGAGACGAUAGUAUACAACCUAGUACCUCA    0.0719
9. GGAGACGAUACUAUACAACCAACUACCACA    0.00835
10. GGAGACCUUACUAAACAACCUACUACCACA    0.128

Incoming: Could you share what pre-steady-state target cleavage rate was measured for GGAGACCUAUGUAUACAACCUCACUACCUCA , tested on MILI (PIWIL2) piRISC loaded with piRNA #1 (26 nt)?;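 also: 1 nM active piRISC with 0.1 nM target library at 33 °C single turnover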
Outgoing: 0.00401

Incoming: Lab note: need pre-steady-state target cleavage rate for GGAGUGGAUACUUAUACAACCUACUACCUCA on MILI (PIWIL2) piRISC loaded with piRNA #1 (26 nt), anyone have it?;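 also: 1 nM active piRISC with 0.1 nM target library at 33 °C single turnover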
Outgoing: 0.133

Incoming: What value of pre-steady-state target cleavage rate on MILI (PIWIL2) piRISC loaded with piRNA #1 (26 nt) does GGAGACCUAACUAUACAUCCUAGUACCUCA have?;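 also: 1 nM active piRISC with 0.1 nM target library at 33 °C single turnover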
Outgoing: 0.0577

Incoming: Enter reported pre-steady-state target cleavage rate observed with MILI (PIWIL2) piRISC loaded with piRNA #1 (26 nt) for GGAGUGGAUACUAUACAACCUACUCCCUCA;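 also: 1 nM active piRISC with 0.1 nM target library at 33 °C single turnover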
Outgoing: 0.0191

---

Test system: MILI (PIWIL2) piRISC loaded with L1MC piRNA (26 nt);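 also: 1 nM active piRISC with 0.1 nM target library at 33 °C single turnover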
Test: pre-steady-state target cleavage rate (min^-1); guide: L1MC piRNA 5'p-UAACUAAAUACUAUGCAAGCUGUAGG; higher = faster piRNA-guided slicing of the target
Conditions: auxiliary factor: 500 nM mouse GTSF1
Experimental endpoint: pre-steady-state target cleavage rate

Reference set (5 entries):
1) UCCUCCUACAGCUUGGAUAGUAUUAAGUUA    0.134
2) UCCUGGAUGAGCUUGCAUAGUAUUAAGUAA    0.0732
3) UCCUGGAUGUGCUUGCAUAGUAUUCAGUUA    0.0572
4) UCCUGGAUGUCGAUGCAUAGUAUUUGGUUA    0.0838
5) UCCUGCUACGAGCUUGCAUAGUAUUUAGUUA    0.217

Incoming: Notebook: pull reported pre-steady-state target cleavage rate for MILI (PIWIL2) piRISC loaded with L1MC piRNA (26 nt), entry UCCUCCUACAGCUUCCAUAGUAUUUAGUAA;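 also: 1 nM active piRISC with 0.1 nM target library at 33 °C single turnover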
Outgoing: 0.0254

Incoming: Hello, I am looking for reported pre-steady-state target cleavage rate with MILI (PIWIL2) piRISC loaded with L1MC piRNA (26 nt) for UCCUGGAUGUCGAUCCAUAGUAUUUAGUUA . Could you help?;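 also: 1 nM active piRISC with 0.1 nM target library at 33 °C single turnover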
Outgoing: 0.00686

Incoming: Requested read-out pre-steady-state target cleavage rate, target or system MILI (PIWIL2) piRISC loaded with L1MC piRNA (26 nt), entry UCCUGGUACAGCUUGCUAAGUAUUUAGAAA;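 also: 1 nM active piRISC with 0.1 nM target library at 33 °C single turnover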
Outgoing: 0.0132

Incoming: Find pre-steady-state target cleavage rate (MILI (PIWIL2) piRISC loaded with L1MC piRNA (26 nt)) for the entry UCCUGGUACAGCUUGCAUUGUAUUUUGUUA;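 also: 1 nM active piRISC with 0.1 nM target library at 33 °C single turnover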
Outgoing: 0.0604

Incoming: Quick check: pre-steady-state target cleavage rate on MILI (PIWIL2) piRISC loaded with L1MC piRNA (26 nt), item UCCUGGAACAGCUUGCAUCGUAUUUAGUUA ?;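 also: 1 nM active piRISC with 0.1 nM target library at 33 °C single turnover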
Outgoing: 0.0882

Incoming: Provide value of pre-steady-state target cleavage rate for this record tested with MILI (PIWIL2) piRISC loaded with L1MC piRNA (26 nt): UCCUGGAUGAGCUUGCAUAGUAUAUUGUUA;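 also: 1 nM active piRISC with 0.1 nM target library at 33 °C single turnover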
Outgoing: 0.0743

Incoming: Under MILI (PIWIL2) piRISC loaded with L1MC piRNA (26 nt): pre-steady-state target cleavage rate value of UCCUCCUAGAGCUUGCAUAGUAUUUAGUAA ?
Outgoing: 0.201

Incoming: Lab note: need pre-steady-state target cleavage rate for UCCUGGUACAGCUUGCUUACUAUUUAGUUA on MILI (PIWIL2) piRISC loaded with L1MC piRNA (26 nt), anyone have it?;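 also: 1 nM active piRISC with 0.1 nM target library at 33 °C single turnover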
Outgoing: 0.0679

---

Attribute: pre-steady-state target cleavage rate
Tested on: MILI (PIWIL2) piRISC loaded with piRNA #1 (26 nt);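 also: 1 nM active piRISC with 0.1 nM target library at 33 °C single turnover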
Experiment: pre-steady-state target cleavage rate (min^-1); guide: piRNA #1 5'p-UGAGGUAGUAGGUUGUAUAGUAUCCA; MIWI and MILI are mouse PIWI proteins and EfPiwi is from a freshwater sponge; tags in brackets are library labels; higher = faster piRNA-guided slicing of the target
Details: auxiliary factor: 500 nM mouse GTSF1
Reply with the value as a number alone.

Solved cases (2 shown):
1. GGAGUGGAAACUAUACAACGUACUACCUCA    0.0251
2. GGAGACCAUACUAUUCUACCUACUACCUCA    0.178

Incoming: Could you share which pre-steady-state target cleavage rate value was measured for GGAGAGGAUACUAUACAACGUUCUACCUCA ?
Outgoing: 0.00213

Incoming: Which pre-steady-state target cleavage rate is listed for GGAGAGGAUACUAUACAACCUACUACCGCA ?
Outgoing: 0.0764

Incoming: Endpoint output: pre-steady-state target cleavage rate of GGAGAGGAUUGAAUACAACCUACUACCUCA . Value?
Outgoing: 0.0664

Incoming: # pre-steady-state target cleavage rate lookup, item GGAGUGGAAUGUAUACAACCUACUACCUCA
Outgoing: 0.0864

Incoming: Reported pre-steady-state target cleavage rate, sequence GGAGUGGAUACUAUACCAACCUACUACCUCA : ____
Outgoing: 0.0424

Incoming: Requested field: pre-steady-state target cleavage rate. Item: GGAGACCUUUCUAUACAACCUACAACCUCA
Outgoing: 0.0806

Incoming: Form field: reported pre-steady-state target cleavage rate of GGAGACCUUUCUAUACAACCUACUACGUCA
Outgoing: 0.0394

Incoming: Dear colleague, I am looking for the recorded pre-steady-state target cleavage rate of the following sequence: GGAGACCUUACUAAACAAGCUACUACCUCA
Outgoing: 0.231

Incoming: Endpoint output: pre-steady-state target cleavage rate of GGAGAGGAUACUAUACACCCUACUACCUCA . Value?
Outgoing: 0.122

Incoming: # input sequence: GGAGUGGAUACCUAUACAACCUACUACCUCA ; wanted: its pre-steady-state target cleavage rate
Outgoing: 0.0993

Incoming: Value lookup for pre-steady-state target cleavage rate; key = GGAGACCAUACUAUACAACCUACUACCCCA
Outgoing: 0.156

Incoming: Quick one: pre-steady-state target cleavage rate of GGAGAGGAUAGUAUACAACCUACUACCUCA ?
Outgoing: 0.0476

Incoming: Consider the sequence shown here: GGAGACCUAUCUAUACAACGUUCUACCUCA What is its recorded pre-steady-state target cleavage rate?
Outgoing: 0.00394

Incoming: Please give the measured pre-steady-state target cleavage rate for this sequence: GGAGUGGAUACUAUACUAGCUACUACCUCA
Outgoing: 0.158

Incoming: Reported pre-steady-state target cleavage rate, sequence GGAGACCUAUCUAUACAACCUACUUCCUCA : ____
Outgoing: 0.0646

Incoming: Quick one: pre-steady-state target cleavage rate of GGAGUGGAUACUGAUACAACCUACUACCUCA ?
Outgoing: 0.144

Incoming: Item under review: GGAGUGCGAUACUAUACAACCUACUACCUCA . Reported pre-steady-state target cleavage rate?
Outgoing: 0.206

Incoming: Which value of pre-steady-state target cleavage rate has been reported for GGAGACCUAACUAUACAACGUACUACCUGA in the records?
Outgoing: 0.00576

Incoming: I am curious: what pre-steady-state target cleavage rate value has been reported for GGAGACCUAACUAUACAACGUACAACCUCA ?
Outgoing: 0.0148

Incoming: // pre-steady-state target cleavage rate lookup, key: GGAGACGAUUCUAUACAAGCUACUACCUCA
Outgoing: 0.239

Incoming: Report pre-steady-state target cleavage rate for GGAGACCUAACUAAACAACCUACUACCACA please.
Outgoing: 0.139

Incoming: Quick check: pre-steady-state target cleavage rate of GGAGACCUUACUAUACAACCUACUACCUCA [g2:g22:cont:t1A] ?
Outgoing: 0.165

Incoming: Any idea what pre-steady-state target cleavage rate was measured for GGAGACCUUACAAUACAACCUAGUACCUCA ?
Outgoing: 0.043
